- SYSTEM_UNDER_TEST: human serotonin transporter (Homo sapiens (Human), UniProt P31645)
- Sequence (P31645 whole entry): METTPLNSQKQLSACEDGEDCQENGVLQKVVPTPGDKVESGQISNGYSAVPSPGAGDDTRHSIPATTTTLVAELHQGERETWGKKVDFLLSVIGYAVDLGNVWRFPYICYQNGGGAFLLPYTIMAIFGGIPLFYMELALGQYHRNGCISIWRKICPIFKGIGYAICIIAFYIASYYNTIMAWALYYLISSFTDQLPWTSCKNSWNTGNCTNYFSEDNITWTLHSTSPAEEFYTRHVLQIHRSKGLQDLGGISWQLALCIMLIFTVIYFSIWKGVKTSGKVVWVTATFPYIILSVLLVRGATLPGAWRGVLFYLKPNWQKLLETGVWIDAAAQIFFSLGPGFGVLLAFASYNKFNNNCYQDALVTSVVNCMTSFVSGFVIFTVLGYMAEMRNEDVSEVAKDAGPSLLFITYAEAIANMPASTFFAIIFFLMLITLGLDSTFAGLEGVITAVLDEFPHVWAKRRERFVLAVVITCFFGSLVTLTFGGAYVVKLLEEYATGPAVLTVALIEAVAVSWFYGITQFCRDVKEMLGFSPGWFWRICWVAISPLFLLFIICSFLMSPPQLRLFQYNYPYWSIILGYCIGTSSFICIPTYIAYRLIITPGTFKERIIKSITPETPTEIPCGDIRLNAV
- METHOD: Serotonin functional uptake assay, recombinant human transporter in HEK-293 cells
- Type: cell-based
- EXPERIMENTAL_CONDITIONS: Human serotonin transporter uptake; read-out: hSERT IC50
ASSAY_METRIC: IC50 (µM)
Numbers only; they are read as µM.

Worked examples follow.
| COMPOUND | SYSTEM_UNDER_TEST | IC50 (µM) |
| --- | --- | --- |
| CN(C)C[C@]1(c2ccc(Cl)cc2)CCCC[C@H]1O (single isomer, unassigned) [154 E1] | human serotonin transporter (Homo sapiens (Human), UniProt P31645) | 2.17 |
| COc1ccc([C@@]2(CN(C)C)CCCC[C@H]2O)cc1 (single isomer, unassigned) [156 E1] | human serotonin transporter (Homo sapiens (Human), UniProt P31645) | 0.076 |
| CN(C)C[C@]1(c2ccc(Cl)cc2)CCCC[C@H]1O (single isomer, unassigned) [154 E2] | human serotonin transporter (Homo sapiens (Human), UniProt P31645) | 0.439 |

Consider the record given below.
Problem: May I ask what IC50 has been recorded for CNC[C@]1(c2cccc(Cl)c2)CCCC[C@H]1O (single isomer, unassigned) [138 E2] ?
Solution: 7

----------
- Tested on: Rats
- METHOD: Rat forced swim test
- Format: in vivo
- EXPERIMENTAL_CONDITIONS: 10 mg/kg PO
Structures can show the parent of a compound that is named as a salt.
ASSAY_METRIC: Rat Forced Swim Swimming (Means ± S.E.M.)
Just the number, please, no unit attached.

Problem: Fill blank: measured Rat Forced Swim Swimming (Means ± S.E.M.) of the molecule CN[C@H](C)C1(c2ccc(Cl)c(Cl)c2)CCCCC1 (stereo in doubt) [48 E1, hydrochloride] is ____.
Solution: 6.5

Problem: # repeat for CN(C)C[C@]1(c2ccc3ccccc3c2)CC[C@](C)(O)CC1
Solution: 1.2

Problem: Same thing, different molecule: CN(C)C[C@]1(c2ccc(Cl)c(Cl)c2)CCCC[C@H]1O (relative stereo) [153 E2]
Solution: 4.3

Problem: // query: CC(N(C)C)C1(c2ccc3ccccc3c2)CCCCC1 (single isomer, unassigned) [56 E1]
Solution: 0.8

Problem: Then CNCC1(c2ccc3ccccc3c2)CCCCC1 ?
Solution: 6.9

----------
# Lookup of reported Rat Forced Swim Immobility (Means ± S.E.M.) keyed by entry
- Tested on: Rats
- METHOD: Rat forced swim test
- Assay type: in vivo
- EXPERIMENTAL_CONDITIONS: 30 mg/kg PO
Form field (numeric): enter value without unit.

| MOLECULE | REPORTED_MEASUREMENT |
| --- | --- |
| CN(C)C[C@]1(c2ccc(Cl)c(Cl)c2)CCCC[C@H]1O (relative stereo) [153 E2] | 31.3 |

--- query ---
Problem: Look up Rat Forced Swim Immobility (Means ± S.E.M.) with Rats for this molecule: CC(N(C)C)C1(c2ccc3ccccc3c2)CCCCC1 (single isomer, unassigned) [56 E1]
Solution: 40.4

----------
- SYSTEM_UNDER_TEST: 5-HT Transporter (SERT) sites in mouse brain (Mus musculus (Mouse))
- METHOD: Ex vivo [3H] citalopram binding to SERT sites in mouse brain after oral dosing
- EXPERIMENTAL_CONDITIONS: mouse; mice, 30 mg/kg PO, 60 min after treatment
Reported receptor occupancy at 30 mg/kg values are given for each entry in this list.

| COMPOUND | REPORTED_MEASUREMENT |
| --- | --- |
| CC(N(C)C)C1(c2ccc3ccccc3c2)CCCCC1 (single isomer, unassigned) [56 E1] | 95% |

Problem: Hi! What's the reported receptor occupancy at 30 mg/kg for CN(C)CC1(c2ccc(Cl)c(Cl)c2)CCC(C)(O)CC1 (stereo not drawn) on 5-HT Transporter (SERT) sites in mouse brain (Mus musculus (Mouse))?
Solution: 3%

Problem: Next up: CN(C)C[C@]1(c2ccc(Cl)c(Cl)c2)CCCC[C@H]1O (relative stereo) [153 E2]
Solution: 58%

Problem: Same for CNCC1(c2ccc(Cl)c(Cl)c2)CCC(C)(O)CC1 (stereo not drawn)
Solution: 64%

Problem: Param item: CN(C)C[C@]1(c2ccc3ccccc3c2)CCCC[C@H]1O (relative stereo) [164 E1]
Solution: 92%

Problem: Repeat with CNC(C)C1(c2ccc3ccccc3c2)CCCCC1 (single isomer, unassigned) [58 E1]
Solution: 86%
